Target: T1, myotoxin II from Bothrops asper (Bothrops asper, UniProt P24605)
T1 construct: also called Mt; M2; source: purified from Bothrops asper venom (CM-Sephadex C25, RP-HPLC), biotinylated
T1 sequence (P24605 17-137): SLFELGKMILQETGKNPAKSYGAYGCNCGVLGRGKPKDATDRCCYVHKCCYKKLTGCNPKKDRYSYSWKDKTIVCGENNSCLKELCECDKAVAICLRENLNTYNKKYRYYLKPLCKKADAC
Test: BLI; […]) biosensors ([…] (0, 1, 10, 100 nM; […]
Details: both partners purified
OBSERVABLE: kon (M⁻¹ s⁻¹)

[[record]]
binder = "TPL0039_05_E02 IgG1 (LALA + YTE) (antibody, V domains shown, also called E02(LALA + YTE); copies: 2 + 2) VH: QVQLLESGGGLVQPGRSLRLSCAASGFTFSSYGLHWVRQAPGKGLEWVAVISYDGSNKYYADSVKGRFTISRDNSKNTLYLQMNSLRAEDTAVYYCASTLQQLDAFDIWGQGTLVTVSS VL: NFMLTQPHSVSESPGKTVTISCTRSSGSIASNYVQWYQQRPGTSPTIMIYEDNQRPSGVPDRFSGAIDSSSNSASLTISGLKTEDEADYYCQSYDSSSVVFGGGTKVTVL"
readout_number = 491000

[[record]]
binder = "TPL0039_05_E02 Fab (Fab, V domains shown, also called Fab E02; source: Expi293F, transient expression, purified (anti-CH1 resin, desalted into PBS)) VH: QVQLLESGGGLVQPGRSLRLSCAASGFTFSSYGLHWVRQAPGKGLEWVAVISYDGSNKYYADSVKGRFTISRDNSKNTLYLQMNSLRAEDTAVYYCASTLQQLDAFDIWGQGTLVTVSS VL: NFMLTQPHSVSESPGKTVTISCTRSSGSIASNYVQWYQQRPGTSPTIMIYEDNQRPSGVPDRFSGAIDSSSNSASLTISGLKTEDEADYYCQSYDSSSVVFGGGTKVTVL"
readout_number = 360000

[[record]]
binder = "TPL0039_05_B12 IgG1 (LALA + YTE) (antibody, V domains shown, also called B12(LALA + YTE); copies: 2 + 2) VH: EVQLVESGGGVVQPGRSLRLSCAASGFTFSSYGMHWVRQAPGKGLEWVAVISYDGSNKYYADSVKGRFTISRDNSKNTLYLQMNSLRAEDTAVYYCAGWTEGDAFDIWGQGTLVTVSS VL: NFMLTQPHSVSESPGKTVTISCTRSSGSIASNYVQWYQQRPGSAPSTVIYEDNRRPSGVPDRFSGSIDSASNSASLTISGLKTEDEADYYCQSYDSSSVVFGGGTKITVL"
readout_number = 685000

